- tested target: purified recombinant human PARP (Homo sapiens)
- Construct: purchased Trevigan (Gaithersburg, Md.)
- Sequence (P09874 whole entry): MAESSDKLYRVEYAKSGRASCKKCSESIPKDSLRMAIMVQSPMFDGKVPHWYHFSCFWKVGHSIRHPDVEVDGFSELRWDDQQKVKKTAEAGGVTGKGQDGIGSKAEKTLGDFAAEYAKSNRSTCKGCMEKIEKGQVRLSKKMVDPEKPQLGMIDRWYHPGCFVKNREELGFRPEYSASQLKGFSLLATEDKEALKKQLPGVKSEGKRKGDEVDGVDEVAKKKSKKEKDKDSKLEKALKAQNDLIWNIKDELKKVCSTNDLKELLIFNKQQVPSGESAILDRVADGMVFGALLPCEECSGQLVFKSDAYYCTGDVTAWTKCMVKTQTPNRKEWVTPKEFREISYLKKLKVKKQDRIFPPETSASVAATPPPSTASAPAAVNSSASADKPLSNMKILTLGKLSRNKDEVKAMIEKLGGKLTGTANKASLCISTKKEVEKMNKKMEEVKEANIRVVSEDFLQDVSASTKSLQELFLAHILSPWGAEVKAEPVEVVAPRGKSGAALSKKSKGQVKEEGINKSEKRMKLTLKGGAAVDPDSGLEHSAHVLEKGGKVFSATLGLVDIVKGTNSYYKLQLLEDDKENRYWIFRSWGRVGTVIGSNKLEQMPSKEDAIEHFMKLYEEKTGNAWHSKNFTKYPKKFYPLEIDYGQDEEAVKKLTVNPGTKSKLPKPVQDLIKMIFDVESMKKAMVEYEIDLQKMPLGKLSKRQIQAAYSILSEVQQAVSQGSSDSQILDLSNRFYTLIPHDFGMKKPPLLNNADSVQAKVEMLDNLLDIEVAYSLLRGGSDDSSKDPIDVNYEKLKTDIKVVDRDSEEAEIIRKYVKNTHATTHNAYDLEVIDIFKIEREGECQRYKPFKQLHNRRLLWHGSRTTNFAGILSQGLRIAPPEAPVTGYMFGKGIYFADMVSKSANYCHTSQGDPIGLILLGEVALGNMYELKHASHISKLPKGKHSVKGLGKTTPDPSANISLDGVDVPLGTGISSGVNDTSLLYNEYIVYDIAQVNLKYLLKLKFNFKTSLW
- test method notes: PARP enzyme assay, [3H]NAD incorporation, IC50
- Type: biochemical
value kind: IC50 (nM)
State the answer as a number, implicitly in nM.

Given the entry O=c1[nH]c2c(c3ccccc13)CN(S(=O)(=O)CCN1CCC(N3CCCC3)CC1)CC2 [Compound 24a] , report its measured IC50.
80

###

- tested target: purified recombinant human PARP (Homo sapiens)
- Construct: purchased Trevigan (Gaithersburg, Md.)
- test method notes: PARP enzyme assay, [3H]NAD incorporation, IC50
- Type: biochemical
- run parameters: approximate values, PARP enzyme assay; read-out: IC50
- Protocol: The reaction is initiated by incubating the mixture at 25° C. After 15 minutes of incubation, the reaction is terminated by adding 500 microliters of ice cold 20% (w/v) trichloroacetic acid. The precipitate formed is transferred onto a glass fiber filter (Packard Unifilter-GF/B) and washed three times with ethanol. After the filter is dried, the radioactivity is determined by scintillation counting.
Each entry below carries its reported log10(IC50).
Plainly stated, the numbers are log10 of IC50 given in nM.

The cases that follow already have their log10(IC50) on record.
compound: O=C(CCCNCC(O)c1ccccc1)N1CCc2[nH]c(=O)c3ccccc3c2C1 (stereo not drawn) [Compound 18r]
log10(IC50): 2.55
//
compound: CN(C)CCN(C)CC(=O)N1CCc2[nH]c(=O)c3ccccc3c2C1 [Compound 16d]
log10(IC50): 2.99
//
compound: NCCC(=O)N1CCc2[nH]c(=O)c3ccccc3c2C1 [Compound 21l]
log10(IC50): 1.79

Param item = CN(C)CC(=O)N1CCc2[nH]c(=O)c3ccccc3c2C1 [Compound 16g] ; retrieve measured log10(IC50).
2.81

Item: NC(Cc1ccc(O)cc1)C(=O)N1CCc2[nH]c(=O)c3ccccc3c2C1 (stereo not drawn) [Compound 21j]
2.58

Ok, now CN1CCN(C(=O)c2cccc(S(=O)(=O)N3CCc4[nH]c(=O)c5ccccc5c4C3)c2)CC1 [Compound 23a]
2.64

src = patent US7247641B2
